- TARGET_UNDER_TEST: human GPR40 (Homo sapiens, UniProt O14842)
- Construct: expressed in transfected cells
- Sequence (O14842 whole entry): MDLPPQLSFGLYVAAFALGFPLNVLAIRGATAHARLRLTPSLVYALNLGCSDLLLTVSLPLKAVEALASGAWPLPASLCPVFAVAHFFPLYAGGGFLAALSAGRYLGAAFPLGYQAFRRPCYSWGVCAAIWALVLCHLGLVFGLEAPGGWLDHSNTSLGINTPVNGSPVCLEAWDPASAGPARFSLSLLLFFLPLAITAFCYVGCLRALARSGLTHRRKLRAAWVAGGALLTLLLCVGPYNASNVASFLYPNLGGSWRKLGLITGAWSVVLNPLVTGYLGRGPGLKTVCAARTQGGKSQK
- TEST_DETAILS: Evaluation of human GPR40 agonist activity with increase in intracellular Ca2+ concentration as an index (FLIPR)
- Assay type: cell-based
- SETTINGS: test compound 1 μM; CHO(dhfr−) cells stably expressing human GPR40; 100% = 10 μM compound of Example 153, 0% = DMSO
Hi there, I'd appreciate the recorded activation at 1 µM for every entry that follows.
Provide the reading as a plain figure in %.

Query: Dear colleague, I am looking for the recorded activation at 1 µM of the following compound: CCc1ccc(C(=O)N(C)c2ncco2)c(N2CCC(COc3cccc(C(CC(=O)O)C4CC4)c3)CC2)c1 (centres unmarked)
Result: 58

Query: Dear colleague, I am looking for the recorded activation at 1 µM of the following compound: COc1ccc(C(=O)N(Cc2ccccn2)CC(C)(C)C)c(N2CCC(COc3cc(C(CC(=O)O)C4CC4)ccn3)CC2)c1 (centres unmarked)
Result: 91

Query: Dear colleague, I am looking for the recorded activation at 1 µM of the following compound: COc1ccc(C(=O)N(CC(C)(C)C)c2cncc(C(F)(F)F)c2)c(N2CCC(COc3cc(C(CC(=O)O)C4CC4)ccn3)CC2)c1 (centres unmarked)
Result: 91

Query: Dear colleague, I am looking for the recorded activation at 1 µM of the following compound: COc1ccc(C(=O)N(CC(F)F)c2cc(C)ccn2)c(N2CCC(COc3cc(C(CC(=O)O)C4CC4)ccn3)CC2)c1 (centres unmarked)
Result: 96

Query: Dear colleague, I am looking for the recorded activation at 1 µM of the following compound: COc1ccc(C(=O)N(CC(C)(C)C)c2cncc(Cl)n2)c(N2CCC(COc3cc(C(CC(=O)O)C4CC4)ccn3)CC2)c1 (centres unmarked)
Result: 105

Query: Dear colleague, I am looking for the recorded activation at 1 µM of the following compound: COc1ccc(C(=O)N(CC(F)(F)F)c2ncccn2)c(N2CCC(COc3cc(C(CC(=O)O)C4CC4)ccn3)CC2)c1 (centres unmarked)
Result: 97

Query: Dear colleague, I am looking for the recorded activation at 1 µM of the following compound: COc1ccc(C(=O)N(CC(F)(F)C(F)F)c2ccccn2)c(N2CCC(COc3cc(C(CC(=O)O)C4CC4)ccn3)CC2)c1 (centres unmarked)
Result: 102

Query: Dear colleague, I am looking for the recorded activation at 1 µM of the following compound: COc1ccc(C(=O)N(CC2CC(F)(F)C2)c2ccccn2)c(N2CCC(COc3cc(C(CC(=O)O)C4CC4)ccn3)CC2)c1 (centres unmarked)
Result: 99

Query: Dear colleague, I am looking for the recorded activation at 1 µM of the following compound: COc1ccc(C(=O)N2CCOCC2Cc2ccccc2)c(N2CCC(COc3cc(C(CC(=O)O)C4CC4)ccn3)CC2)c1 (centres unmarked)
Result: 92

Query: Dear colleague, I am looking for the recorded activation at 1 µM of the following compound: Cc1cccc(N(CC(C)(C)C)C(=O)c2ccc(C(N)=O)cc2N2CCC(COc3cc(C(CC(=O)O)C4CC4)ccn3)CC2)n1 (centres unmarked)
Result: 11

Query: Dear colleague, I am looking for the recorded activation at 1 µM of the following compound: COc1ccc(C(=O)N(CC(C)(C)C)c2ccccn2)c(N2CCC(COc3cc([C@@H](CC(=O)O)C4CC4)ccn3)CC2)c1
Result: 102

Query: Dear colleague, I am looking for the recorded activation at 1 µM of the following compound: COc1ccc(C(=O)N(CC2CC2)c2ccccn2)c(N2CCC(COc3cc(C(CC(=O)O)C4CC4)ccn3)CC2)c1 (centres unmarked) [Example 117]
Result: 95

Query: Dear colleague, I am looking for the recorded activation at 1 µM of the following compound: COc1ccc(C(=O)N(CC2(F)CC2)c2ccccc2)c(N2CCC(COc3cc(C(CC(=O)O)C4CC4)ccn3)CC2)c1 (centres unmarked)
Result: 89

Query: Dear colleague, I am looking for the recorded activation at 1 µM of the following compound: CCc1ccc(C(=O)N(CC(C)(C)C)c2ccccn2)c(N2CCC(COc3cccc(C(CC(=O)O)C4CC4)c3)CC2)c1 (centres unmarked)
Result: 83

Query: Dear colleague, I am looking for the recorded activation at 1 µM of the following compound: COc1ccc(C(=O)N(CC(C)C)c2cc(C#N)ccn2)c(N2CCC(COc3cc(C(CC(=O)O)C4CC4)ccn3)CC2)c1 (centres unmarked)
Result: 96

Query: Dear colleague, I am looking for the recorded activation at 1 µM of the following compound: COc1ccc(C(=O)N(CC(C)C)c2ccc(C)cn2)c(N2CCC(COc3cc(C(CC(=O)O)C4CC4)ccn3)CC2)c1 (centres unmarked)
Result: 96

Query: Dear colleague, I am looking for the recorded activation at 1 µM of the following compound: COc1cc(N2CCC(COc3cc(C(CC(=O)O)C4CC4)ccn3)CC2)c(C(=O)N(CC(C)(C)C)c2cccc(C)n2)cc1F (centres unmarked)
Result: 91

Query: Dear colleague, I am looking for the recorded activation at 1 µM of the following compound: COc1ccc(C(=O)N(CC(C)C)c2cccnc2OC)c(N2CCC(COc3cc(C(CC(=O)O)C4CC4)ccn3)CC2)c1 (centres unmarked)
Result: 95

Query: Dear colleague, I am looking for the recorded activation at 1 µM of the following compound: COc1ccc(C(=O)N(CC(C)(C)C)c2ccccn2)c(N2CC[C@@H](COc3cccc(C(CC(=O)O)C4CC4)c3)[C@@H](C)C2)c1 (some centres unmarked)
Result: 6

Query: Dear colleague, I am looking for the recorded activation at 1 µM of the following compound: COc1ccc(C(=O)N(CC2CC2)c2cc(C)cc(C)n2)c(N2CCC(COc3cc(C(CC(=O)O)C4CC4)ccn3)CC2)c1 (centres unmarked)
Result: 99

Query: Dear colleague, I am looking for the recorded activation at 1 µM of the following compound: COc1ccc(C(=O)N(CC(C)C)c2cccc(OC)n2)c(N2CCC(COc3cc(C(CC(=O)O)C4CC4)ccn3)CC2)c1 (centres unmarked)
Result: 103

Query: Dear colleague, I am looking for the recorded activation at 1 µM of the following compound: COc1ccc(C(=O)N(CC2(F)CCC2)c2ccccn2)c(N2CCC(COc3cc(C(CC(=O)O)C4CC4)ccn3)CC2)c1 (centres unmarked)
Result: 100

Query: Dear colleague, I am looking for the recorded activation at 1 µM of the following compound: COc1ccc(C(=O)N(CC(C)(C)OCC(F)(F)F)c2ccccn2)c(N2CCC(COc3cc(C(CC(=O)O)C4CC4)ccn3)CC2)c1 (centres unmarked)
Result: 97

Query: Dear colleague, I am looking for the recorded activation at 1 µM of the following compound: CCc1ccc(C(=O)N(CC(F)(F)C(F)(F)F)C(C)C)c(N2CCC(COc3cccc(C(CC(=O)O)C4CC4)c3)CC2)c1 (centres unmarked)
Result: 89

Query: Dear colleague, I am looking for the recorded activation at 1 µM of the following compound: COc1ccc(C(=O)N(CC(C)(C)C)C2CC2)c(N2CCC(COc3cc(C(CC(=O)O)C4CC4)ccn3)CC2)c1 (centres unmarked)
Result: 90

Query: Dear colleague, I am looking for the recorded activation at 1 µM of the following compound: COc1ccc(C(=O)N(C)CC(F)(F)C(F)(F)F)c(N2CCC(COc3cc(C(CC(=O)O)C4CC4)ccn3)CC2)c1 (centres unmarked)
Result: 100

The measurements presented in this section are drawn from patent US9776962B2.
